The origin of these recorded values is PubChem BioAssay (NCI).

system: MDA-MB-231 breast; test: NCI-60 one-dose screen, 48 h (100 = growth as untreated, 0 = no growth, -100 = all killed); conditions: 10 µM unless noted
Compounds without any hit were thinned out: in the full panel of roughly 83,000, 20% have a hit. Activity calls are given as the source filed them. The calls were made as follows: active = growth percent below 10; inactive = the rest.
growth by entry:

compound: CC(C)COc1nc2c(c(=O)n(C)c(=O)n2C)n1C
growth: 108% (inactive)

compound: CC(C)c1ccc(-n2c(=S)[nH]c3sc4cc(O)ccc4c3c2=O)cc1
growth: 95.4% (inactive)

compound: Nc1n[nH]c2cccc(C#Cc3cccc(C(=O)Nc4cc(C(F)(F)F)cc(C(F)(F)F)c4)c3)c12
growth: 51.9% (inactive)

compound: O=C(Nc1ccccc1O)c1ccc(CNC(=O)c2sccc2Nc2ccnc(C(F)(F)F)c2)cc1
growth: 53% (inactive)

compound: Nc1n[nH]c2cccc(C#Cc3cccc(NC(=O)c4cc(F)cc(C(F)(F)F)c4)c3)c12
growth: 48.1% (inactive)

compound: O=C1c2c(c3c4ccccc4[nH]c3c3ccc4ccccc4c23)C(=O)N1CCN1CCOCC1
growth: 69.5% (inactive)

compound: Cc1ccccc1/C=C/C(=O)c1cccc(OCCCOc2cccc(C(=O)/C=C/c3ccccc3C)c2)c1
growth: 94.8% [3 µM] (inactive)

compound: C=CC(=O)N1CCN(c2cccc(Oc3nccc(Nc4nnc(-c5ccc(Br)cc5)s4)n3)c2)CC1
growth: 75.2% (inactive)

compound: CCOC(=O)C(=O)C(C(=O)OCC)c1ccccc1 (stereo not given)
growth: 94.1% (inactive)

compound: OB1OCc2cc(/C=C/c3cccc(C(F)(F)F)c3)ccc21
growth: -33.9% (active)

compound: COc1ccc2c(c1OC)CO[C@@H]2[C@H]1c2c(cc3c(c2OC)OCO3)CCN1S(=O)(=O)c1cn(C)cn1
growth: 30.4% (inactive)

compound: O=C(CSC(=S)n1cnnc1)NC(=O)c1ccccc1
growth: 112% (inactive)

compound: Clc1ccc2c(c1)C(c1c[nH]c3ccccc13)(c1c[nH]c3ccccc13)CCO2
growth: 55.5% (inactive)

compound: O=C1Nc2ccc(C(=O)O)cc2/C1=N/c1nnc(Sc2ccccc2)s1
growth: 106% (inactive)

compound: Nc1cnc(C(=O)NNc2nc3cc(F)ccc3n3cccc23)cn1
growth: 35.9% (inactive)

compound: COc1ccc(F)cc1/C=C/C(=O)/C=C(/C=C/c1cc(F)ccc1OC)OB(F)F
growth: 32.5% (inactive)

compound: Cc1cc(S(=O)(=O)/N=C(\N)n2nc(C)c(C)c2C)c(SCc2ccccc2)cc1Cl
growth: 89.6% (inactive)

compound: COc1ccc(OC)c(-c2nc(SCC(=O)c3ccc(C#N)cc3)[nH]c(=O)c2C#N)c1
growth: 101% (inactive)

compound: COc1ccc(C2=C(Br)C(=O)c3nc(C)ccc3C2=O)cc1
growth: 73.2% (inactive)

compound: O=C(CN1CCOCC1)Nc1nc(-c2cc3ccccc3oc2=O)cs1
growth: 93.6% (inactive)
